Value source: ChEMBL document CHEMBL4402510

system: Mycolicibacterium phlei; assay: Antibacterial activity against Mycobacterium phlei; type: functional
Label Satisfied when MIC < 20 µg/mL; otherwise Not satisfied.

Please review the following examples before continuing.
| item_smiles | label_class |
| --- | --- |
| CCCCCCCCCCCCCCCCCCCNC(=O)C1=CCN(C)[C@@H]([C@H](O[C@@H]2O[C@H](CN)[C@@H](O)[C@H]2O)[C@H]2O[C@@H](n3ccc(=O)[nH]c3=O)[C@H](O)[C@@H]2O)C(=O)N1C | Not satisfied |
| CCCCCCCCCCNC(=O)C1=CCN(C)[C@@H]([C@H](O[C@@H]2O[C@H](CN)[C@@H](O)[C@H]2O)[C@H]2O[C@@H](n3ccc(=O)[nH]c3=O)[C@H](O)[C@@H]2O)C(=O)N1C | Not satisfied |
| CCCCCNC(=O)C1=CCN(C)[C@@H]([C@H](O[C@@H]2O[C@H](CN)[C@@H](O)[C@H]2O)[C@H]2O[C@@H](n3ccc(=O)[nH]c3=O)[C@H](O)[C@@H]2O)C(=O)N1C | Not satisfied |
| CCCCCCCc1ccc(NC(=O)C2=CCN(C)[C@@H]([C@H](O[C@@H]3O[C@H](CN)[C@@H](O)[C@H]3O)[C@H]3O[C@@H](n4ccc(=O)[nH]c4=O)[C@H](O)[C@@H]3O)C(=O)N2C)cc1 | Not satisfied |
| CN1C(=O)[C@H]([C@H](O[C@@H]2O[C@H](CN)[C@@H](O)[C@H]2O)[C@H]2O[C@@H](n3ccc(=O)[nH]c3=O)[C@H](O)[C@@H]2O)N(C)CC=C1C(=O)Nc1ccc(C2CCCCC2)cc1 | Satisfied |

Check if MIC falls below 20 µg/mL for "CCCCCCCCCCCCCNC(=O)C1=CCN(C)[C@@H]([C@H](O[C@@H]2O[C@H](CN)[C@@H](O)[C@H]2O)[C@H]2O[C@@H](n3ccc(=O)[nH]c3=O)[C@H](O)[C@@H]2O)C(=O)N1C" .
Satisfied

# check: MIC < 20 µg/mL for "CCc1ccc(NC(=O)C2=CCN(C)[C@@H]([C@H](O[C@@H]3O[C@H](CN)[C@@H](O)[C@H]3O)[C@H]3O[C@@H](n4ccc(=O)[nH]c4=O)[C@H](O)[C@@H]3O)C(=O)N2C)cc1"
Satisfied

Dear colleague, could you confirm whether MIC of "CCCCCCCOc1ccc(NC(=O)C2=CCN(C)[C@@H]([C@H](O[C@@H]3O[C@H](CN)[C@@H](O)[C@H]3O)[C@H]3O[C@@H](n4ccc(=O)[nH]c4=O)[C@H](O)[C@@H]3O)C(=O)N2C)cc1" falls below 20 µg/mL? Thanks.
Satisfied

Please let me know if "CCCCCCCCCCCCCOC(=O)C1=CCN(C)[C@@H]([C@H](O[C@@H]2O[C@H](CN)[C@@H](O)[C@H]2O)[C@H]2O[C@@H](n3ccc(=O)[nH]c3=O)[C@H](O)[C@@H]2O)C(=O)N1C" shows MIC below 20 µg/mL.
Not satisfied
